System: B16F10 cells
measurement-description: Cell viability, Alamar blue
condition: Mus musculus, B16-F10, 72 h, read-out: IC50 (cell viability)
measurement-label: pIC50
pIC50 field: float, defined as -log10 of concentration (mol/L).

Recorded result, CC(C)c1cc2c(c(O)c1O)[C@@]1(C(=O)O)CCCC(C)(C)[C@@H]1CC2 [CA, carnosic acid] , pIC50: 4.53
